# Test system: P2XRs in DRG neurons
# MEASUREMENT NOTES: Whole-cell recording of ATP-evoked currents, primary DRG neurons from WT mice
# Assay type: cell-based
# MEASUREMENT SETUP: Mus musculus, DRG neuron, read-out: ATP EC50
pEC50: −log10 of the molar value.
READOUT TYPE: pEC50

{"COMPOUND": "Nc1ncnc2c1ncn2[C@@H]1O[C@H](COP(=O)([O-])OP(=O)([O-])OP(=O)([O-])[O-])[C@@H](O)[C@H]1O.[Mg+2].[Mg+2] [ATP, Adenosine 5′-triphosphate magnesium salt]", "READOUT TYPE": "pEC50", "MEASURED": 5.23}

----------
# SYSTEM: P2X3R with TMEM163 (Homo sapiens, UniProt P56373)
# Sequence (Q8TC26 whole entry partner, one chain of several): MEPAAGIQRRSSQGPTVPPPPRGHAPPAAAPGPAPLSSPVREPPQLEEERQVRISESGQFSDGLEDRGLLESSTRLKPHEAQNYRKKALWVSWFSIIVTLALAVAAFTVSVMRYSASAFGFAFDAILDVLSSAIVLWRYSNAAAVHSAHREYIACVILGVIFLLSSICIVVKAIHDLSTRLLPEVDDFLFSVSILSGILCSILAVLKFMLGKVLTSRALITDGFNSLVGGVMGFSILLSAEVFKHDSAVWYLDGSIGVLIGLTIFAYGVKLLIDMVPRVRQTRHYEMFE
# Assay type: cell-based
# MEASUREMENT SETUP: ATP EC50, 25 pg P2X3R with 2 ng TMEM163; TEVC; 20-min interval

{"MOLECULE": "Nc1ncnc2c1ncn2[C@@H]1O[C@H](COP(=O)([O-])OP(=O)([O-])OP(=O)([O-])[O-])[C@@H](O)[C@H]1O.[Mg+2].[Mg+2] [ATP, Adenosine 5′-triphosphate magnesium salt]", "EC50 [nM]": 261}

----------
# SYSTEM: P2X3R (Homo sapiens, UniProt P56373)
# Sequence (P56373 whole entry): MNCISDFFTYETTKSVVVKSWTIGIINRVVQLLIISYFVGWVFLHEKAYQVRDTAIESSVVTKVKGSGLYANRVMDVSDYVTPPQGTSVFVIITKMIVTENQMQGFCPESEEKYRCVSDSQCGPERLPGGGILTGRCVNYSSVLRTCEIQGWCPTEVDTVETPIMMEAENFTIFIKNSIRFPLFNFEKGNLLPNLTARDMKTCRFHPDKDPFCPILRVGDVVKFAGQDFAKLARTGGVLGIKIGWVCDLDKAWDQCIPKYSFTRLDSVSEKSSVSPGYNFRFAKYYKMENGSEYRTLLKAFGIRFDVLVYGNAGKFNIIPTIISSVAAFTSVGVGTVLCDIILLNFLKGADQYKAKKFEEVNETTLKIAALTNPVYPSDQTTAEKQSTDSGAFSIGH
READOUT TYPE: EC50 (nM)

{"MOLECULE": "Nc1ncnc2c1ncn2[C@@H]1O[C@H](COP(=O)([O-])OP(=O)([O-])OP(=O)([O-])[O-])[C@@H](O)[C@H]1O.[Mg+2].[Mg+2] [ATP, Adenosine 5′-triphosphate magnesium salt]", "READOUT TYPE": "EC50", "READING UNIT": "nM", "MEASURED": 1300}

Sourced from paper PMC7337098
